# MEASURED ON: FLT3-ITD (Homo sapiens, UniProt P36888, ITD)
# Sequence (P36888 27-993): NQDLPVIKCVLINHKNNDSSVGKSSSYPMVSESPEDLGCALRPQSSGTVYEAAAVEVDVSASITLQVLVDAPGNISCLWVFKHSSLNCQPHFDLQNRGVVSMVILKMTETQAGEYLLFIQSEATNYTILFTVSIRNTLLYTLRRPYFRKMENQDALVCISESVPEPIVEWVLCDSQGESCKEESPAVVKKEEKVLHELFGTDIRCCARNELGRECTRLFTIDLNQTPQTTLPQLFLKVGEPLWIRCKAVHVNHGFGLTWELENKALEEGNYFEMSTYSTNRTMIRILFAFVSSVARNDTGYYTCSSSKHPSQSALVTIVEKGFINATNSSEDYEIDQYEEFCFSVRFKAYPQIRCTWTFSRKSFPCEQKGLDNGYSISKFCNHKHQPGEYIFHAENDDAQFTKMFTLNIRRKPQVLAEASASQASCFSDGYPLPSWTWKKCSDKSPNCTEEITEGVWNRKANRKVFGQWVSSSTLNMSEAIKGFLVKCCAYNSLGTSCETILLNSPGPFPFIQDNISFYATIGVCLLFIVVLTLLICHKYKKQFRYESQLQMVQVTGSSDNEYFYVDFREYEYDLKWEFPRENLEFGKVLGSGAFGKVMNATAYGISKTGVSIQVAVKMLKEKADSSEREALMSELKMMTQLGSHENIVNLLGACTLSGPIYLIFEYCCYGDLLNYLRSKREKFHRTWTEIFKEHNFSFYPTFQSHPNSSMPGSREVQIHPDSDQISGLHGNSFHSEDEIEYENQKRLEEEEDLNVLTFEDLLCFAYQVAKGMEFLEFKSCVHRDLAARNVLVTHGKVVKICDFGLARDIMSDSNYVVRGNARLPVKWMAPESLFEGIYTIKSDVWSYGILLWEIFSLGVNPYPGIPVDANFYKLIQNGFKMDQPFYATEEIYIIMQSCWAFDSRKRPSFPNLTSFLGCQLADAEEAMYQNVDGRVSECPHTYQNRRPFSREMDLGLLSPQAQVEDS
# METHOD DESCRIPTION: FLT3-ITD kinase inhibition

MOLECULE	MEASUREMENT UNITS	IC50
COCCN1CCN([C@H]2CC[C@H](n3cc(-c4ccc(Oc5ccccc5)cc4)c4c(N)ncnc43)CC2)CC1	nM	16
CN1C2CCC1CC(N1CCC(n3nc(-c4ccc(NC(=O)c5cc6ccccc6n5C)cc4)c4c(N)ncnc43)CC1)C2 (stereo not shown)	nM	2780
Cn1nccc1CN[C@H]1CC[C@H](n2cc(-c3ccc(Oc4ccccc4)cc3)c3c(N)ncnc32)CC1	nM	39
CN1[C@@H]2CC[C@H]1CN([C@H]1CC[C@H](n3cc(-c4ccc(Oc5ccccc5)cc4)c4c(N)ncnc43)CC1)C2	nM	18
CN1C2CCC1CC(N[C@H]1CC[C@@H](n3cc(-c4ccc(Oc5ccccc5)cc4)c4c(N)ncnc43)CC1)C2 (stereo partly shown)	nM	35.2
CN1CCN([C@H]2CC[C@H](n3cc(-c4ccc(NC(=O)CCc5ccccc5)cc4)c4c(N)ncnc43)CC2)CC1	nM	14
CN1C2CCC1CC(N[C@H]1CC[C@@H](n3nc(-c4ccc(Oc5ccccc5)cc4)c4c(N)ncnc43)CC1)C2 (stereo partly shown)	nM	16
